Origin of the recorded values: patent US7410949

# study.target: Y4R
# test.details: cell-based or functional assay
*1 amine or outer side, *2 acyl side, *3 side chain or, on linkers, in order; H or OH if unused. [ ]: non-standard residue; d: D form. Pqa = N-piperazin-1-yl-4(3H)-quinazolinone-3-acetic acid, O=C(Cn1cnc2ccc(N3CCN([*:1])CC3)cc2c1=O)[*:2]; Tic = O=C(O)[C@@H]1Cc2ccccc2CN1; Nle = CCCC[C@H](N)C(=O)O
assay.metric: Y4R EC50(nM) FLIPR

>>> readout_value("IARHYLNLVTRQRY (N-terminal acetyl; Pqa moiety between the two parts; C-terminal amide) [Ac-Ile-Ala-Pqa-Arg-His-Tyr-Leu-Asn-Leu-Val-Thr-Arg-Gln-Arg-Tyr-NH2]")
"3020 nM"
>>> readout_value("IKRHYLNLVTRQRY ((D)Arg at PYY position 33 (residue 9 of the second part); Pqa moiety between the two parts; C-terminal amide) [H-Ile-Lys-Pqa-Arg-His-Tyr-Leu-Asn-Leu-Val-Thr-(D)Arg-Gln-Arg-Tyr-NH2]")
"> 5000 nM"
>>> readout_value("IKRHYLNLVTRQRY ((D)Tyr at PYY position 27 (residue 3 of the second part); Pqa moiety between the two parts; C-terminal amide) [H-Ile-Lys-Pqa-Arg-His-(D)Tyr-Leu-Asn-Leu-Val-Thr-Arg-Gln-Arg-Tyr-NH2]")
"> 5000 nM"
>>> readout_value("Ac-I[Nle][Pqa]RH[Tic]LNLVTRQRY-NH2 (SMILES CCCC[C@H](NC(=O)[C@@H](NC(C)=O)[C@@H](C)CC)C(=O)N1CCN(c2ccc3ncn(CC(=O)N[C@@H](CCCNC(=N)N)C(=O)N[C@@H](Cc4c[nH]cn4)C(=O)N4Cc5ccccc5C[C@H]4C(=O)N[C@@H](CC(C)C)C(=O)N[C@@H](CC(N)=O)C(=O)N[C@@H](CC(C)C)C(=O)N[C@H](C(=O)N[C@H](C(=O)N[C@@H](CCCNC(=N)N)C(=O)N[C@@H](CCC(N)=O)C(=O)N[C@@H](CCCNC(=N)N)C(=O)N[C@@H](Cc4ccc(O)cc4)C(N)=O)[C@@H](C)O)C(C)C)c(=O)c3c2)CC1) [Ac-Ile-Nle-Pqa-Arg-His-Tic-Leu-Asn-Leu-Val-Thr-Arg-Gln-Arg-Tyr-NH2]")
"> 5000 nM"
